// reported Ki per item
experimental-target: Adenosine receptor A1 (Rattus norvegicus)
Sequence (P25099 whole entry): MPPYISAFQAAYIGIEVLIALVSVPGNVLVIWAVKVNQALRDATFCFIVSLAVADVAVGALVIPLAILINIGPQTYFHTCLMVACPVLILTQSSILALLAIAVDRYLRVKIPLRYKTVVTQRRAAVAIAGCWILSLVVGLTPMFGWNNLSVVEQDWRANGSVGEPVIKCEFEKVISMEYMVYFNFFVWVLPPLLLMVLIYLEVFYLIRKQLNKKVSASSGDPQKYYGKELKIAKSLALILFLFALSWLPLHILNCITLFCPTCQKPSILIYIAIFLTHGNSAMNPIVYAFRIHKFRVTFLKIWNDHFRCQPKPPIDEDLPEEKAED
experiment-summary: Inhibition of 1 nM [3H]N-6-(phenylisopropyl)adenosine binding to A1 receptors in rat cortical membranes
Assay type: cell membranes, Membrane

molecule | unit-name | Ki
CCCn1c(=O)c2[nH]c(-c3ccc(OCC(=O)NCCNC(=O)C(CCCCNC(=O)OCc4ccccc4)NC(=O)OC(C)(C)C)cc3)nc2n(CCC)c1=O (configuration not stated) | nM | 12
CCCn1c(=O)c2[nH]c(-c3ccc(OCC(=O)NCCNC(=O)[C@@H](Cc4cccs4)NC(=O)OC(C)(C)C)cc3)nc2n(CCC)c1=O | nM | 17

* * *

experimental-target: Adenosine receptor A1 (Rattus norvegicus)
Sequence (P25099 whole entry): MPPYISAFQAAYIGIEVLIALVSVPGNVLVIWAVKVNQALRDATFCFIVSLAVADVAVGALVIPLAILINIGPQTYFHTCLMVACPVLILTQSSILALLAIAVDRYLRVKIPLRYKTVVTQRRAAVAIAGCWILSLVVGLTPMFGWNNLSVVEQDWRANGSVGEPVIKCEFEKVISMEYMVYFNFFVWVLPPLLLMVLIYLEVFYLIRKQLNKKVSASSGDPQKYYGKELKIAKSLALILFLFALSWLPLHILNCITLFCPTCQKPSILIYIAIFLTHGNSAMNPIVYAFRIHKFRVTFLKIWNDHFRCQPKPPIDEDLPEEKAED
experiment-summary: Inhibition of binding of 1 nM [3H]N-6-(phenylisopropyl)adenosine to adenosine A1 receptor in rat cortical membranes
Type: cell membranes, Membrane
measurement-type: Ki (nM)

molecule | unit-name | value-observed
Br.Br.CCCn1c(=O)c2nc(-c3ccc(OCC(=O)NCCNC(=O)C(N)CCCCN)cc3)[nH]c2n(CCC)c1=O (configuration not stated) | nM | 0.87
Br.Br.CCCn1c(=O)c2nc(-c3ccc(OCC(=O)NCCNC(=O)C(N)CCCCN)cc3)[nH]c2n(CCC)c1=S (configuration not stated) | nM | 13
CCCn1c(=O)c2nc(-c3ccc(OCC(=O)NCCNC(=O)C(CCCCNC(=O)OCc4ccccc4)NC(=O)OC(C)(C)C)cc3)[nH]c2n(CCC)c1=S (configuration not stated) | nM | 84
Cn1c(=O)c2nc(-c3ccccc3)[nH]c2n(C)c1=S | nM | 38
Cn1c(=O)c2nc(-c3ccoc3)[nH]c2n(C)c1=O | nM | 72.4
CCCn1c(=O)c2nc(-c3ccc(OCC(=O)NCCN(C)C)cc3)[nH]c2n(CCC)c1=O | nM | 2.8
Cn1c(=O)c2nc(-c3ccco3)[nH]c2n(C)c1=S | nM | 182
CCCn1c(=O)c2nc(-c3ccco3)[nH]c2n(CCC)c1=S | nM | 32
CCCn1c(=O)c2nc(-c3ccco3)[nH]c2n(CCC)c1=O | nM | 37
CCCn1c(=O)c2[nH]c(-c3ccc(OCC(=O)NCCNC)cc3)nc2n(CCC)c1=O | nM | 15.1
CCCn1c(=O)c2nc(-c3ccccc3)[nH]c2n(CCC)c1=S | nM | 16.1
Cn1c(=O)c2nc(-c3ccco3)[nH]c2n(C)c1=O | nM | 350
